From: PubChem BioAssay AID540276

Assay: qHTS for inhibitors of binding or entry into cells for Marburg Virus
Details: Marburg virus pseudotyped entry inhibition, cell reporter; series mostly up to 37.8 µM
Out of some 300,000 compounds screened, about 5,400 (1.8%) were called active. Not shown: some 28% with an inconclusive outcome. Calls come from the whole dose curve; tested in HEK293 cells. This is one part of a sample in which actives are shown more often than they occur.
Form entry, call: pick from 1 for active, 0 for inactive

Request: Tell me the recorded outcome of this test for COc1cccc(/C=N/Nc2ncc(C(F)(F)F)cc2Cl)c1O .
Result: 1

###

Test: qHTS for inhibitors of binding or entry into cells for Marburg Virus; note: potency is the fitted concentration of half-maximal effect
Details: Marburg virus pseudotyped entry inhibition, cell reporter; series mostly up to 37.8 µM
Hit rate of the full screen: of about 300,000 compounds, about 5,400 (1.8%) were called active. Another 28% or so got no clear call; they are omitted. The list comes from a sample in which actives are over-represented; it also holds close analogues and randomly drawn compounds.
measured.quantity: Potency

CCN1CCc2c(C#N)c(NCc3ccccc3)nc(NCCO)c2C1 ... inactive
COc1ccc(-n2ncc3c2CC(C)(C)CC3NC(=O)CCc2c(C)nn(C)c2C)cc1 (stereo unspecified) ... inactive
Cc1cccc(C=CC(=O)c2ccc(Cl)cc2)c1 ... inactive
CN1CCC[C@@H]1CCO[C@](C)(c1ccccc1)c1ccc(Cl)cc1 ... 9.2 µM (active)
CC(C=Cc1ccccc1)=NNS(=O)(=O)c1ccc([N+](=O)[O-])cc1 ... inactive

We next turn to a different compound, shown below.
Request: Value lookup for Potency; key = Cc1noc(C)c1COC(=O)c1cc2ccccc2cc1O
Result: inactive

###

Experiment: qHTS for inhibitors of binding or entry into cells for Marburg Virus
Conditions: Marburg virus pseudotyped entry inhibition, cell reporter; series mostly up to 37.8 µM
Out of some 300,000 compounds screened, about 5,400 (1.8%) were called active. Another 28% or so got no clear call; they are omitted. The call rests on the fitted dose curve; tested in HEK293 cells. The entries come from a sample that favours actives as a whole.
Form entry, call: pick from y = active, n = inactive

See these solved cases before continuing.
NN=C(NN=Cc1ccccc1)c1ccccc1 ... n
COc1cccc(-c2nc3cc(C)ccc3o2)c1 ... y
COc1cccc2sc(N(CCCN(C)C)C(=O)C(c3ccccc3)c3ccccc3)nc12 ... y

Request: Tell me the recorded outcome of this test for C=C(C)C(=O)Nc1cccc(C(C)=O)c1 .
Result: n

Request: Tell me the recorded outcome of this test for O=C(N/N=C/c1ccoc1)c1ccc(Cl)cc1Cl .
Result: n

Request: Tell me the recorded outcome of this test for Cc1ccc(S(=O)(=O)C(C#N)c2nc3ccccc3nc2N2CCCC2)cc1C (centres undefined) .
Result: n

Request: Tell me the recorded outcome of this test for c1ccc(CCc2ccccn2)cc1 .
Result: n

Request: Tell me the recorded outcome of this test for CC(Oc1ccc(Br)cc1)C(=O)NCC(c1ccco1)N1CCCCC1 (centres undefined) .
Result: n

Request: Tell me the recorded outcome of this test for Cc1ccc(C(=O)Nc2ccc3c(c2)OCCO3)cc1S(=O)(=O)N1CCOCC1 .
Result: n

Request: Tell me the recorded outcome of this test for CC(C)Oc1ccc(S(=O)(=O)N2CCOCC2)cc1NC(=O)C1CSC2(C)CCC(=O)N12 (centres undefined) .
Result: n

Request: Tell me the recorded outcome of this test for Cc1ccccc1N(C(=O)CNC(=O)c1cccs1)C(C(=O)NC1CCCC1)c1ccncc1 (centres undefined) .
Result: n

Request: Tell me the recorded outcome of this test for Cn1c(SCC(=O)N2CCCc3ccccc32)nc2ccccc2c1=O .
Result: y

Request: Tell me the recorded outcome of this test for COc1ccc(OC)c(NC(=O)COC(=O)Cc2ccsc2)c1 .
Result: n

Request: Tell me the recorded outcome of this test for CC(C)CCNC(=O)c1ccc2c(Cl)c3c(nc2c1)CCC3 .
Result: y

Request: Tell me the recorded outcome of this test for O=C(Nc1cccc(S(=O)(=O)N2CCOCC2)c1)C12CC3CC(CC(C3)C1)C2 .
Result: n

Request: Tell me the recorded outcome of this test for CCOC(=O)N(Cc1ccccc1)C1CC1 .
Result: n

Request: Tell me the recorded outcome of this test for CN(CC(=O)NCc1cccnc1)S(=O)(=O)c1cc(Cl)ccc1Cl .
Result: n

Request: Tell me the recorded outcome of this test for COc1ccc(CCNC(=O)c2c(C)nn(-c3ccccc3)c2Cl)cc1 .
Result: n

Request: Tell me the recorded outcome of this test for O=[N+]([O-])c1ccc2oc(-c3cccc(O)c3)nc2c1 .
Result: n

Request: Tell me the recorded outcome of this test for COc1ccc2oc(N)nc2c1 .
Result: n

Request: Tell me the recorded outcome of this test for CC(C)c1ccc(/C=C/C(=O)NCCCN2CCOCC2)cc1 .
Result: n

Request: Tell me the recorded outcome of this test for CCOc1ccc2nc(N(CCN(C)C)C(=O)c3ccc4ccccc4c3)sc2c1 .
Result: n

Request: Tell me the recorded outcome of this test for COc1cccc(CNC(=O)c2ccc3c(Cl)c4c(nc3c2)CCCC4)c1 .
Result: n

Request: Tell me the recorded outcome of this test for CC(=O)c1c(C)[nH]c(C(=O)COC(=O)c2cccs2)c1C .
Result: n
